Give IC50 for every item shown.
measurement target: Thyroid hormone receptor beta (Homo sapiens, UniProt P10828)
Sequence (P10828 whole entry, the tested form may be a part): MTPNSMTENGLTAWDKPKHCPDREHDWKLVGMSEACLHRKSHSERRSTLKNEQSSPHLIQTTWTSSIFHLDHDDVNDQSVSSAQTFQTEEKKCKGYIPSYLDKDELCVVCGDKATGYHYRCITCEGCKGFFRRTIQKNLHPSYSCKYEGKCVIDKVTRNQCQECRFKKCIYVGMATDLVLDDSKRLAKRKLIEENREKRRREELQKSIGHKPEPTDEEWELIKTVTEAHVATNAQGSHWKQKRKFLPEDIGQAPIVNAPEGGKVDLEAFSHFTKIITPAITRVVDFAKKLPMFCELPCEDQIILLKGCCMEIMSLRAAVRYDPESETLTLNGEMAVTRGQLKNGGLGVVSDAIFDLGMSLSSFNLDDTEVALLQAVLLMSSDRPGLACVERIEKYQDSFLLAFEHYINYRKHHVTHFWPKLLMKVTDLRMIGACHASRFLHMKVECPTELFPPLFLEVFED
assay summary: Antagonist activity at CMV-fused TRbeta-LBD-GAL4-DBD (unknown origin) expressed in HEK293T cells assessed as inhibition of T3-induced receptor transactivation after 16 hrs by bright-Glo luciferase reporter gene assay
Numbers only, in µM.

| smiles structure | measurement name | units text | measured |
| --- | --- | --- | --- |
| COC(=O)Cc1ccc(OCc2oc(-c3ccccc3OC)nc2C)cc1 | IC50 | µM | 7.6 |
| COC(=O)Cc1ccc(OCc2oc(-c3cccc(OC)c3)nc2C)cc1 | IC50 | µM | 0.97 |
| COC(=O)c1ccc(OCc2oc(-c3cccc(OC)c3)nc2C)cc1 | IC50 | µM | 8.8 |

stdin: // lookup IC50 for "COC(=O)c1cccc(OCc2oc(-c3ccccc3OC)nc2C)c1"
stdout: 9.8

----------
assay summary: Aqueous solubility of the compound in DMSO at 500 uM by filter based assay
Assay type: physicochemical
measurement name: log10 solubility kinetic at 500 µM (log10 of the value in µM)
Note: values are log10 of solubility kinetic at 500 µM expressed in µM.

# annotated cases, reported log10 solubility kinetic at 500 µM shown
| smiles structure | log10 solubility kinetic at 500 µM |
| --- | --- |
| COC(=O)c1ccccc1OCc1oc(-c2cccc(OC)c2)nc1C | 1.72 |
| COC(=O)Cc1ccc(OCc2oc(-c3ccccc3OC)nc2C)cc1 | 1.79 |

Provide each entry's log10 solubility kinetic at 500 µM from the list below.
1. COc1cccc(-c2nc(C)c(COc3ccc(C(=O)O)cc3)o2)c1
2. COc1ccccc1-c1nc(C)c(COc2ccccc2C(=O)O)o1
3. COC(=O)c1ccc(OCc2oc(-c3cccc(OC)c3)nc2C)cc1
4. COC(=O)CCc1ccc(OCc2oc(-c3ccccc3OC)nc2C)cc1

stdout:
1. 2.66
2. 2.60
3. 1.27
4. 1.80

List the reported log10 solubility kinetic at 500 µM of each compound below.
1. COc1cccc(-c2nc(C)c(COc3ccc(CCC(=O)O)cc3)o2)c1
2. COC(=O)c1cccc(OCc2oc(-c3cccc(OC)c3)nc2C)c1
3. COc1ccccc1-c1nc(C)c(COc2ccc(CCC(=O)O)cc2)o1
4. COC(=O)CCc1ccc(OCc2oc(-c3cccc(OC)c3)nc2C)cc1
5. COc1ccccc1-c1nc(C)c(COc2ccc(C(=O)O)cc2)o1

stdout:
[2.37, 1.38, 2.60, 1.58, 2.66]

----------
measurement target: UniProt:P10827
Sequence (P10827 whole entry, the tested form may be a part): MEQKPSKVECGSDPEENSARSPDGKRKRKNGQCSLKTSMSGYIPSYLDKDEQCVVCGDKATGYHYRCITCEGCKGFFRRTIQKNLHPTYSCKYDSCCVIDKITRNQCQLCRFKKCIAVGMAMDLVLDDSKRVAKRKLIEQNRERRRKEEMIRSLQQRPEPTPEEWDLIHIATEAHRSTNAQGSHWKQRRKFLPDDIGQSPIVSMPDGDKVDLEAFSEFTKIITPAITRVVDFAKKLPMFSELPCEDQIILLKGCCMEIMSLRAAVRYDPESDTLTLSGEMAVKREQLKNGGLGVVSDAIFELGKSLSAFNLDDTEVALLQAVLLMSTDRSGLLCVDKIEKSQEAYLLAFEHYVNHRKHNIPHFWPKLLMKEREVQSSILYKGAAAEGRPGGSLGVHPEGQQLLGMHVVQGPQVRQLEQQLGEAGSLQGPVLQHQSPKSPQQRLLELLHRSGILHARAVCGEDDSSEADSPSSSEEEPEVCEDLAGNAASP
assay summary: Antagonist activity at CMV-fused TRalpha-LBD-GAL4-DBD (unknown origin) expressed in HEK293T cells assessed as inhibition of T3-induced receptor transactivation after 16 hrs by bright-Glo luciferase reporter gene assay
Exercise: state measured IC50 for each of the molecules provided.
One number for each entry, in µM.

| smiles structure | units text | IC50 |
| --- | --- | --- |
| COC(=O)Cc1ccc(OCc2oc(-c3cccc(OC)c3)nc2C)cc1 | µM | 4.2 |
| COC(=O)c1cccc(OCc2oc(-c3ccccc3OC)nc2C)c1 | µM | 10.1 |
| COC(=O)Cc1ccc(OCc2oc(-c3ccccc3OC)nc2C)cc1 | µM | 8.4 |

// below: IC50 requested for another molecule
stdin: What does the data say about its IC50? Entry: "COC(=O)c1ccc(OCc2oc(-c3cccc(OC)c3)nc2C)cc1"
stdout: 5.4
